tested on: NCI-H358 cells; assay: 3D cell proliferation inhibition assay (CellTiter-Glo 3D); type: cell-based; conditions: Homo sapiens, 192 h; NCI-H358 (KRAS G12C-mutated NSCLC), 3D culture, CTG 3D read on Day 8; read-out: Activity by IC50 (nM), inhibitory activity against NCI-H358 cell proliferation
Metric Name: IC50

{"Compound": "Cc1nc(N[C@H](C)c2cccc(C(F)F)c2F)c2c(n1)N1CCN=C1C(C1=CCN(C(=O)C3(F)CC3)CC1)=C2 [Example 124]", "Metric Name": "IC50", "Result": "50 to 100 nM"}
{"Compound": "Cc1nc(N[C@H](C)c2cccc(C(F)(F)F)c2)c2c(n1)N1CCN=C1C(c1ccc(=O)n(CCO)c1)=C2 [Example 97]", "Metric Name": "IC50", "Result": "100 to 500 nM"}
{"Compound": "Cc1nc(N[C@H](C)c2cccc3c2OCC3(F)F)c2c(n1)N1CCN=C1C(c1ccn(C)c(=O)c1)=C2 [Example 121]", "Metric Name": "IC50", "Result": "100 to 500 nM"}
{"Compound": "CC(=O)N1CC=C(C2=Cc3c(N[C@H](C)c4cccc(C(F)F)c4F)nc(C)nc3N3CCN=C23)CC1 [Example 31]", "Metric Name": "IC50", "Result": "< 50 nM"}
{"Compound": "Cc1nc(N[C@H](C)c2cccc(C(F)(F)F)c2)c2c(n1)N1CCN=C1C(c1cnc(=O)n(C)c1)=C2 [Example 103]", "Metric Name": "IC50", "Result": "100 to 500 nM"}
{"Compound": "Cc1nc(N[C@H](C)c2cccc(C(F)(F)F)c2)c2c(n1)N1CCN=C1C(c1ccn(CF)c(=O)c1)=C2 [Example 113]", "Metric Name": "IC50", "Result": "100 to 500 nM"}
{"Compound": "Cc1nc(N[C@H](C)c2cccc(C(F)F)c2F)c2c(n1)N1CCN=C1C(c1ccc(=O)[nH]c1)=C2 [Example 12]", "Metric Name": "IC50", "Result": "100 to 500 nM"}
{"Compound": "Cc1nc(N[C@H](C)c2cccc(C(F)(F)F)c2)c2c(n1)N1CCN=C1C(c1ccc(=O)n(CC(F)F)c1)=C2 [Example 101]", "Metric Name": "IC50", "Result": "100 to 500 nM"}
{"Compound": "CC(=O)N1CC=C(c2cc3c(N[C@H](C)c4cccc(C(F)(F)F)c4)nc(C)nc3n3cnnc23)CC1 [Example 2]", "Metric Name": "IC50", "Result": "100 to 500 nM"}
{"Compound": "Cc1nc(N[C@H](C)c2cccc(C(F)(F)C(C)(C)O)c2F)c2c(n1)N1CCN=C1C(c1ccc(=O)n(C)c1)=C2 [Example 119]", "Metric Name": "IC50", "Result": "50 to 100 nM"}
{"Compound": "Cc1nc(N[C@H](C)c2cccc(C(F)(F)F)c2)c2c(n1)N1CCN=C1C(c1ccc(=O)n(C(C)C)c1)=C2 [Example 105]", "Metric Name": "IC50", "Result": "100 to 500 nM"}
{"Compound": "Cc1nc(N[C@H](C)c2cccc(C(F)(F)F)c2)c2c(n1)N1CCN=C1C(c1cccn(C)c1=O)=C2 [Example 99]", "Metric Name": "IC50", "Result": "100 to 500 nM"}
{"Compound": "Cc1nc(N[C@H](C)c2cccc(C(F)(F)F)c2)c2c(n1)N1CCN=C1C(c1cncc(C#N)c1)=C2 [Example 95]", "Metric Name": "IC50", "Result": "100 to 500 nM"}
{"Compound": "Cc1nc(N[C@H](C)c2cccc(C(F)(F)F)c2)c2c(n1)N1CCN=C1C(c1ccn(C3COC3)c(=O)c1)=C2 [Example 108]", "Metric Name": "IC50", "Result": "50 to 100 nM"}

Cited source for all entries: patent US20250051330A1
